System: HT-29
method description: Effect on c-MYC gene expression in human HT-29 cells assessed as c-MYC level at 5 nM after 48 hrs by RT-qPCR analysis
Format: functional
readout type: Activity
Quick note: number first, unit second.

Example entries begin here.
| smiles repr | Activity |
| --- | --- |
| COc1ccc(NC(=O)N[C@H]2CCc3cc(OC)c(OC)c(OC)c3-c3ccc(OC)c(=O)cc32)cc1 | 55% |
| COc1cc2c(c(OC)c1OC)-c1ccc(OC)c(=O)cc1[C@@H](NC(=O)Nc1ccc(F)cc1Cl)CC2 | 58% |
| COc1cc2c(c(OC)c1OC)-c1ccc(OC)c(=O)cc1[C@@H](NC(=O)Nc1ccc(F)cc1)CC2 | 52% |

Now look at this entry.
Looking up COc1cc2c(c(OC)c1OC)-c1ccc(OC)c(=O)cc1[C@@H](NC(=O)Nc1cccc(Cl)c1)CC2 , I found its Activity recorded as 104%
